Tested on: RAW264.7 cells
Assay: Cell viability assay (MTT), RAW264.7
Format: cell-based, mouse
Conditions: 24 h, read-out: Cytotoxicity IC50 with RAW264.7
metric name: IC50

> print(dat)
                  compound.structure.string  metric.name    result
1  COc1cc(O)c(C(C)=O)cc1NC(=O)Nc1cccc(C(F)(F)F)c1         IC50  > 100 µM

----------
System: LPS-induced nitric oxide production in RAW264.7 cells
Assay: LPS-induced NO production, Griess Reagent assay
Type: cell-based, mouse
Settings: Mus musculus, compounds 10 μM, 1 h, then LPS (0.5 μg/mL) 24 h, read-out: Inhibition rate±SD (%) against NO production
Measured inhibition at 10 µM, listed per entry for reference.
metric name: inhibition at 10 µM (%)

> print(dat)
                                    molecule                             tested.system          metric.name  value.units  quantitative.result
 1         COc1cc(O)c(C(C)=O)cc1NC(=O)NC1CC1  LPS-induced nitric oxide production in RAW264.7 cells  inhibition at 10 µM            %                   41
 2     COc1cc(O)c(C(C)=O)cc1NC(=O)NCc1ccccc1  LPS-induced nitric oxide production in RAW264.7 cells  inhibition at 10 µM            %                 7.86
 3  COc1cc(O)c(C(C)=O)cc1NC(=O)NCCc1ccc(F)cc1 [Compound D2]  LPS-induced nitric oxide production in RAW264.7 cells  inhibition at 10 µM            %                 30.2
 4  Cc1ccc(-c2cc(C(F)(F)F)nn2-c2ccc(S(N)(=O)=O)cc2)cc1 [Cel, Celecoxib, reference compound]  LPS-induced nitric oxide production in RAW264.7 cells  inhibition at 10 µM            %                 30.1
 5    COc1cc(O)c(C(C)=O)cc1NC(=O)N1CCN(C)CC1  LPS-induced nitric oxide production in RAW264.7 cells  inhibition at 10 µM            %                   26
 6   COc1cc(O)c(C(C)=O)cc1NC(=O)NCc1ccccc1Cl  LPS-induced nitric oxide production in RAW264.7 cells  inhibition at 10 µM            %                 33.7
 7     COc1cc(O)c(C(C)=O)cc1NC(=O)Nc1ccccc1C  LPS-induced nitric oxide production in RAW264.7 cells  inhibition at 10 µM            %                 47.2
 8      COc1cc(O)c(C(C)=O)cc1NC(=O)Nc1ccccc1  LPS-induced nitric oxide production in RAW264.7 cells  inhibition at 10 µM            %                   51
 9        COc1cc(O)c(C(C)=O)cc1NC(=O)N1CCSC1  LPS-induced nitric oxide production in RAW264.7 cells  inhibition at 10 µM            %                 24.1
10   CCN1CCN(C(=O)Nc2cc(C(C)=O)c(O)cc2OC)CC1  LPS-induced nitric oxide production in RAW264.7 cells  inhibition at 10 µM            %                 35.1
11  COc1cc(O)c(C(C)=O)cc1NC(=O)Nc1ccc(C(F)(F)F)cc1  LPS-induced nitric oxide production in RAW264.7 cells  inhibition at 10 µM            %                 60.9
12  COc1cc(O)c(C(C)=O)cc1NC(=O)Nc1cccc(C(F)(F)F)c1  LPS-induced nitric oxide production in RAW264.7 cells  inhibition at 10 µM            %                 95.5
13   COc1cc(O)c(C(C)=O)cc1NC(=O)Nc1cccc(C)c1  LPS-induced nitric oxide production in RAW264.7 cells  inhibition at 10 µM            %                 48.7
14  COc1cc(O)c(C(C)=O)cc1NC(=O)N(C(C)C)C(C)C  LPS-induced nitric oxide production in RAW264.7 cells  inhibition at 10 µM            %                 15.4
15  COc1cc(O)c(C(C)=O)cc1NC(=O)NCCc1ccccc1 [Compound D1]  LPS-induced nitric oxide production in RAW264.7 cells  inhibition at 10 µM            %                 15.3
16            CONC(=O)Nc1cc(C(C)=O)c(O)cc1OC  LPS-induced nitric oxide production in RAW264.7 cells  inhibition at 10 µM            %                 15.2
17      COc1cc(O)c(C(C)=O)cc1NC(=O)NC(C)(C)C  LPS-induced nitric oxide production in RAW264.7 cells  inhibition at 10 µM            %                 12.3
18   COc1cc(O)c(C(C)=O)cc1NC(=O)Nc1ccc(C)cc1  LPS-induced nitric oxide production in RAW264.7 cells  inhibition at 10 µM            %                 53.9
19   COc1cc(O)c(C(C)=O)cc1NC(=O)Nc1cccc(F)c1  LPS-induced nitric oxide production in RAW264.7 cells  inhibition at 10 µM            %                   63
